assay: amyloid nucleation score (Sup35N fusion, yeast selection) (log enrichment); library NNK2; higher = more nucleation; inactive = no reads after selection;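 further: zero at mode of non-aggregating sequences after 7 days selection at 30°C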
Classification field: enter true (1) for amyloid nucleation score values not below 0.4, false (0) for values below it.

Quick check: does LTIDTTFVITSRYTCQLWQR have amyloid nucleation score greater than or equal to 0.4?
true (1)

// inclusive: amyloid nucleation score at least 0.4? input: TGCVDVAEMVNP
false (0)

Test whether the substance ECERERYLLGTRT records amyloid nucleation score of 0.4 or higher.
false (0)

Would you say MNHISLFFRSEVQVCGVFC shows amyloid nucleation score at minimum 0.4?
true (1)

Is it the case that CRRTFDSLIS has amyloid nucleation score reaching or exceeding 0.4?
false (0)
